# PROCEDURE_SUMMARY: NCI Yeast Anticancer Drug Screen. Data for the bub3 strain (AID 167)
# CONDITION_NOTES: S. cerevisiae bub3 mutant strain, at 50.0 µM, stronger effect = higher value
About 79,000 compounds went through this panel and 15% of them were active in at least one assay; those are over-represented in the sample as a whole.
growth inhibition reference
Give just the numeric value; % need not be written.

Need growth inhibition of `CC1(C)N=C(N)N=C(N)N1c1ccc(CCC(=O)Nc2ccc(S(=O)(=O)F)cc2)cc1` , thanks.
-0.55

Need growth inhibition of `CC(=O)Nc1cc(Cl)c([N+](=O)[O-])cc1C` , thanks.
0.75

Need growth inhibition of `c1ccc(C(c2ccccc2)C2CCNCC2)cc1` , thanks.
32.6

Need growth inhibition of `c1cc[c]([Pb]([S]c2ccccn2)([c]2ccccc2)[c]2ccccc2)cc1` , thanks.
99

Need growth inhibition of `COc1cc(/C=N/NC(=O)CN(C)C)cc(OC)c1N(CCCl)CCCl` , thanks.
-2.25

Need growth inhibition of `O=C(Nc1cccc(S(=O)(=O)F)c1)c1cccc([N+](=O)[O-])c1` , thanks.
95.6

###

# PROCEDURE_SUMMARY: NCI Yeast Anticancer Drug Screen. Data for the cln2 rad14 strain (AID 165);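 further: 0% = growth equal to vehicle treated cultures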
# CONDITION_NOTES: S. cerevisiae cln2 rad14 strain, at 50.0 µM, stronger effect = higher value
Compounds without any hit were thinned out: in the full panel of roughly 79,000, 15% have a hit.
PROPERTY_MEASURED: growth inhibition (%)
Give just the numeric value; % need not be written.

COMPOUND: COS(=O)(=O)c1ccc(C)cc1
UNIT_STRING: %
ASSAY_VALUE: 12.7

COMPOUND: COc1cccc(C2CC(=O)c3cccn32)c1 (stereo not drawn)
UNIT_STRING: %
ASSAY_VALUE: 21.3

COMPOUND: NC(Cc1cccc(NP(=S)(NCCO)N2CC2)c1)C(=O)O (stereo not drawn)
UNIT_STRING: %
ASSAY_VALUE: -10.9

Could you now consider this next compound?
Need growth inhibition of `O=c1[nH]c(=O)[nH]c(=O)[nH]1` , thanks.
-42.8

###

# PROCEDURE_SUMMARY: NCI Yeast Anticancer Drug Screen. Data for the mec2-1 strain (AID 157)
# CONDITION_NOTES: S. cerevisiae mec2-1 strain, at 50.0 µM, stronger effect = higher value
# Description: Growth inhibition of yeast strains with defined genetic alterations is measured as a screen for potential anti-cancer activity. Selected strains with alterations in DNA damage repair or cell cycle control were exposed to compounds and growth inhibition was measured relative to vehicle treated controls. The strain used in this assay is mec2-1
This is part of a sample that, as a whole, favours compounds with a hit. Of some 79,000 tested, about 15% had one in any assay.
PROPERTY_MEASURED: growth inhibition (%)
Give just the numeric value; % need not be written.

Some compounds with recorded growth inhibition:
COMPOUND: CO[C@H](C)[C@](O)(C(=O)OCC1=CC[N+]2([O-])CC[C@H](O)[C@@H]12)C(C)C (stereo partly specified)
PROPERTY_MEASURED: growth inhibition
ASSAY_VALUE: -20.2

COMPOUND: CNC1=C(N2CC2)C(=O)C(NC)=C(N2CC2)C1=O
PROPERTY_MEASURED: growth inhibition
ASSAY_VALUE: 28.3

COMPOUND: N[C@@H]1CCCC[C@@H]1N.O=P([O-])([O-])CN(CP(=O)([O-])[O-])CP(=O)([O-])[O-].[Pt+2]
PROPERTY_MEASURED: growth inhibition
ASSAY_VALUE: -6.4

COMPOUND: O=[As](O)(O)Cc1ccccc1
PROPERTY_MEASURED: growth inhibition
ASSAY_VALUE: 2.45

COMPOUND: CN1C(=O)c2ccccc2NC(=O)C12O[C@@H]2c1ccccc1 (stereo partly specified)
PROPERTY_MEASURED: growth inhibition
ASSAY_VALUE: -19.7

Could you now consider this next compound?
Need growth inhibition of `CC(=O)OC[C@]12CCC(C)=C[C@H]1O[C@@H]1[C@H](O)[C@@H](OC(C)=O)[C@@]2(C)[C@@]12CO2` , thanks.
-26.6

###

# PROCEDURE_SUMMARY: NCI Yeast Anticancer Drug Screen. Data for the bub3 strain (AID 167)
# CONDITION_NOTES: S. cerevisiae bub3 mutant strain, at 50.0 µM, stronger effect = higher value
The panel holds about 79,000 compounds, 15% with a hit somewhere; the sample as a whole holds those more often.
PROPERTY_MEASURED: growth inhibition (%)
Give just the numeric value; % need not be written.

Some compounds with recorded growth inhibition:
COMPOUND: CC(C)(C)NP(=O)(NC(C)(C)C)NC(C)(C)C
growth inhibition / %: -8.5

COMPOUND: CC1(C(=N)N)CCOC1=O (configuration not stated)
growth inhibition / %: -1

COMPOUND: C#CC(C)N1CCC2(CC1)C(=O)NCN2c1ccccc1 (configuration not stated)
growth inhibition / %: -4.05

COMPOUND: Nc1nc(-c2cccc(S(=O)(=O)F)c2)cs1
growth inhibition / %: 51.1

COMPOUND: OCCCNCc1cccnc1
growth inhibition / %: -3.8

Need growth inhibition of `[CH3][Sb]1([Cl])[CH2]CCC[CH2]1` , thanks.
32

Need growth inhibition of `CCNC(=O)Oc1c(Cl)cc(S(=O)(=O)F)cc1Cl` , thanks.
16

###

# PROCEDURE_SUMMARY: NCI Yeast Anticancer Drug Screen. Data for the mlh1 rad18 strain (AID 175)
# CONDITION_NOTES: S. cerevisiae mlh1 rad18 strain growth inhibition; at 50.0 µM; stronger effect = higher value
The panel holds about 79,000 compounds, 15% with a hit somewhere; the sample as a whole holds those more often.
PROPERTY_MEASURED: growth inhibition (%)
Give just the numeric value; % need not be written.

COMPOUND: CN1CCC(O)(c2ccccc2)C(C(O)c2ccccc2)C1 (stereo unspecified)
PROPERTY_MEASURED: growth inhibition
ASSAY_VALUE: -20.6

COMPOUND: CN(N)c1ccc([N+](=O)[O-])cc1[N+](=O)[O-]
PROPERTY_MEASURED: growth inhibition
ASSAY_VALUE: -39.1

COMPOUND: c1ccc(NNc2ccccc2)cc1
PROPERTY_MEASURED: growth inhibition
ASSAY_VALUE: -5.65

COMPOUND: Cc1ccccc1C(=O)[O][Pb]([CH3])([CH3])[CH3]
PROPERTY_MEASURED: growth inhibition
ASSAY_VALUE: 7

COMPOUND: CCOC(=O)/C(=C\c1ccc(Cl)cc1)[Se]c1ccccc1
PROPERTY_MEASURED: growth inhibition
ASSAY_VALUE: 43

Need growth inhibition of CC1=CC2OC3CC4OC(=O)/C=C/C=C/C(C(C)O)OCC/C(C)=C/C(=O)OCC2(CC1)C4(C)C31CO1 (stereo unspecified) , thanks.
90.7

Need growth inhibition of CCN(CC)C(=O)CCNC(C)Cc1c[nH]c2ccccc12 (stereo unspecified) , thanks.
-37.5

Need growth inhibition of `CC(=N\[O-])/C(C)=N/[O-].CC(=N\[O-])/C(C)=N/[O-].[Cu+2]` , thanks.
29.2

Need growth inhibition of `CN1CCN(c2cc3nsnc3c3nsnc23)CC1` , thanks.
18.1

Need growth inhibition of `S=P(Oc1cc(Cl)c(Cl)cc1Cl)(N1CCOCC1)N1CCOCC1` , thanks.
19.9

Need growth inhibition of `O=NC1C(=O)NC(=O)NC1=O` , thanks.
-3.65

###

growth inhibition reference
# PROCEDURE_SUMMARY: NCI Yeast Anticancer Drug Screen. Data for the sgs1 mgt1 strain (AID 161);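 further: 0% = growth of cultures given vehicle only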
# CONDITION_NOTES: S. cerevisiae sgs1 mgt1 strain, at 50.0 µM, stronger effect = higher value
# Description: Growth inhibition of yeast strains with defined genetic alterations is measured as a screen for potential anti-cancer activity. Selected strains with alterations in DNA damage repair or cell cycle control were exposed to compounds and growth inhibition was measured relative to vehicle treated controls. The strain used in this assay is sgs1 mgt1
About 79,000 compounds went through this panel and 15% of them were active in at least one assay; those are over-represented in the sample as a whole.
Give just the numeric value; % need not be written.

Need growth inhibition of CC1CCCCN1CCCN=C(N)N[N+](=O)[O-] (configuration not stated) , thanks.
19.2

Need growth inhibition of `O=NN(Cc1ccccc1)Cc1ccccc1` , thanks.
3.1

###

# PROCEDURE_SUMMARY: NCI Yeast Anticancer Drug Screen. Data for the mec2-1 strain (AID 157)
# CONDITION_NOTES: S. cerevisiae mec2-1 strain, at 50.0 µM, stronger effect = higher value
Compounds without any hit were thinned out: in the full panel of roughly 79,000, 15% have a hit.
PROPERTY_MEASURED: growth inhibition (%)
Give just the numeric value; % need not be written.

COMPOUND: O=N[O-].O=N[O-].[NH2-].[NH2-].[NH2-].[NH2-].[Ni]
UNIT_STRING: %
growth inhibition: 7
//
COMPOUND: CN1CCC2(CC1)C(C#N)C(=O)NC(=O)C2C#N (stereo not drawn)
UNIT_STRING: %
growth inhibition: 3
//
COMPOUND: COc1cccc(/C=N/[N-]C(=O)c2ccncc2)c1[O-].[Mn+2].[OH3+]
UNIT_STRING: %
growth inhibition: 12.5

Need growth inhibition of COC1CCC2NCCNC2C1 (stereo not drawn) , thanks.
-6

Need growth inhibition of `O=S(=O)(F)c1ccccc1S(=O)(=O)Cl` , thanks.
-2.55

Need growth inhibition of `[Au].[NH-]CC[NH-].[NH-]CC[NH-]` , thanks.
-5.5

Need growth inhibition of CC(C)NC(=O)N1C2C3CCC(C)(OC3(C)C)C21 (stereo not drawn) , thanks.
-21.4

Need growth inhibition of COc1cc2c(cc1OC)C(c1ccc(O)c(O)c1)CNC2 (stereo not drawn) , thanks.
-7.9

Need growth inhibition of ClC1OC(Cl)(Cl)C(Cl)(Cl)OC1(Cl)Cl (stereo not drawn) , thanks.
3.75

Need growth inhibition of CCC1(CCC(C)C)C(=O)NC(=NCCCC(N)C(=O)O)NC1=O (stereo not drawn) , thanks.
-0.35

Need growth inhibition of CC(N)Cc1c[nH]c2ccccc12 (stereo not drawn) , thanks.
-22.2
